tested on: VRE ATCC 700425 (vanC); experiment: MIC, broth microdilution; type: cell-based, enterococci; settings: VRE ATCC 700425 (vanC)
endpoint name: MIC (µg/mL)
Report the value in µg/mL with no unit label.

// known answers, use as guide
Request: I am curious: what MIC value has been reported for CN(C)[C@H]1C(=O)N[C@@H]2Cc3ccc(c(Cl)c3)Oc3cc4cc(c3O)Oc3ccc(cc3Cl)[C@@H](O[C@@H]3O[C@H](CO)[C@@H](O)[C@H](O)[C@H]3NC(=O)CCCCCCC[N+](C)(C)C)[C@@H]3NC(=O)[C@H](NC(=O)[C@@H]4NC(=O)[C@@H](NC2=O)c2cc(O)cc(c2)Oc2cc1ccc2O)c1ccc(O)c(c1)-c1c(O)cc(O)cc1[C@@H](C(=O)O)NC3=O [Compound 23] ?
Response: 2

Request: Moving on to C#CCCC(=O)N[C@H]1[C@H](O[C@@H]2c3ccc(c(Cl)c3)Oc3cc4cc(c3O)Oc3ccc(cc3Cl)C[C@H]3NC(=O)[C@H](N)c5ccc(O)c(c5)Oc5cc(O)cc(c5)[C@H](NC3=O)C(=O)N[C@H]4C(=O)N[C@H]3C(=O)N[C@@H]2C(=O)N[C@H](C(=O)O)c2cc(O)cc(O)c2-c2cc3ccc2O)O[C@H](CO)[C@@H](O)[C@@H]1O [Compound 13]
Response: 4

Request: Moving on to CCCCCCCC(=O)N[C@H]1[C@H](O[C@@H]2c3ccc(c(Cl)c3)Oc3cc4cc(c3O)Oc3ccc(cc3Cl)C[C@H]3NC(=O)[C@H](N(C)C)c5ccc(O)c(c5)Oc5cc(O)cc(c5)[C@H](NC3=O)C(=O)N[C@H]4C(=O)N[C@H]3C(=O)N[C@@H]2C(=O)N[C@H](C(=O)O)c2cc(O)cc(O)c2-c2cc3ccc2O)O[C@H](CO)[C@@H](O)[C@@H]1O [Compound 20]
Response: 1

Others:
Request: I am curious: what MIC value has been reported for CN(C)[C@H]1C(=O)N[C@@H]2Cc3ccc(c(Cl)c3)Oc3cc4cc(c3O)Oc3ccc(cc3Cl)[C@@H](O[C@@H]3O[C@H](CO)[C@@H](O)[C@H](O)[C@H]3NC(=O)CCCCCCCO)[C@@H]3NC(=O)[C@H](NC(=O)[C@@H]4NC(=O)[C@@H](NC2=O)c2cc(O)cc(c2)Oc2cc1ccc2O)c1ccc(O)c(c1)-c1c(O)cc(O)cc1[C@@H](C(=O)O)NC3=O [Compound 21] ?
Response: 8

Request: Moving on to N[C@H]1C(=O)N[C@@H]2Cc3ccc(c(Cl)c3)Oc3cc4cc(c3O)Oc3ccc(cc3Cl)[C@@H](O[C@@H]3O[C@H](CO)[C@@H](O)[C@H](O)[C@H]3NC(=O)CCCCc3ccc(F)cc3)[C@@H]3NC(=O)[C@H](NC(=O)[C@@H]4NC(=O)[C@@H](NC2=O)c2cc(O)cc(c2)Oc2cc1ccc2O)c1ccc(O)c(c1)-c1c(O)cc(O)cc1[C@@H](C(=O)O)NC3=O [Compound 18]
Response: 1

Request: Moving on to CN(C)[C@H]1C(=O)N[C@@H]2Cc3ccc(c(Cl)c3)Oc3cc4cc(c3O)Oc3ccc(cc3Cl)[C@@H](O[C@@H]3O[C@H](CO)[C@@H](O)[C@H](O)[C@H]3NC(=O)CCCCCCCN)[C@@H]3NC(=O)[C@H](NC(=O)[C@@H]4NC(=O)[C@@H](NC2=O)c2cc(O)cc(c2)Oc2cc1ccc2O)c1ccc(O)c(c1)-c1c(O)cc(O)cc1[C@@H](C(=O)O)NC3=O [Compound 22]
Response: 2

Request: Moving on to N[C@H]1C(=O)N[C@@H]2Cc3ccc(c(Cl)c3)Oc3cc4cc(c3O)Oc3ccc(cc3Cl)[C@@H](O[C@@H]3O[C@H](CO)[C@@H](O)[C@H](O)[C@H]3NC(=O)CCCCCCCCCCCO)[C@@H]3NC(=O)[C@H](NC(=O)[C@@H]4NC(=O)[C@@H](NC2=O)c2cc(O)cc(c2)Oc2cc1ccc2O)c1ccc(O)c(c1)-c1c(O)cc(O)cc1[C@@H](C(=O)O)NC3=O [Compound 19]
Response: 1

Request: Moving on to N[C@H]1C(=O)N[C@@H]2Cc3ccc(c(Cl)c3)Oc3cc4cc(c3O)Oc3ccc(cc3Cl)[C@@H](O[C@@H]3O[C@H](CO)[C@@H](O)[C@H](O)[C@H]3NC(=O)CCCCCc3ccccc3)[C@@H]3NC(=O)[C@H](NC(=O)[C@@H]4NC(=O)[C@@H](NC2=O)c2cc(O)cc(c2)Oc2cc1ccc2O)c1ccc(O)c(c1)-c1c(O)cc(O)cc1[C@@H](C(=O)O)NC3=O [Compound 16]
Response: 1

Request: Moving on to N[C@H]1C(=O)N[C@@H]2Cc3ccc(c(Cl)c3)Oc3cc4cc(c3O)Oc3ccc(cc3Cl)[C@@H](O[C@@H]3O[C@H](CO)[C@@H](O)[C@H](O)[C@H]3NC(=O)CCc3ccccc3)[C@@H]3NC(=O)[C@H](NC(=O)[C@@H]4NC(=O)[C@@H](NC2=O)c2cc(O)cc(c2)Oc2cc1ccc2O)c1ccc(O)c(c1)-c1c(O)cc(O)cc1[C@@H](C(=O)O)NC3=O [Compound 15]
Response: 1

Values compiled from patent US11739122B2.
